Listing of recorded %Inh by entry.
Test system: YSK1
Construct: gene STK25
Settings: concentration: 1 μM, replicates: in singlicate; n = 1;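 also: KINOMEscan kinase panel screen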
quantity_kind: %Inh

| compound | recorded_value |
| --- | --- |
| COC(=O)Nc1nc2ccc(Oc3ccc(NC(=O)Nc4cc(C(F)(F)F)ccc4F)cc3)cc2[nH]1.Cl | 25% |
| CCn1cnc2c(NCc3ccccc3)ncnc21 | 0% |
| CCn1c(-c2nonc2N)nc2c(-c3ccccc3)ncc(OCCCN)c21.O=C(O)C(F)(F)F.O=C(O)C(F)(F)F | 23% |
| Nc1ncnc2scc(-c3ccc(NC(=O)Cc4cc(F)ccc4F)cc3)c12.O=C(O)C(F)(F)F | 0% |
| Cc1cc(-c2ccnc(Nc3cccc(C#N)c3)n2)cc(C)c1O | 4% |
| CS(=O)(=O)c1cccc(CNc2nc(Nc3ccc4c(c3)CCC(=O)N4)ncc2C(F)(F)F)c1 | 0% |
| Nc1cccc(-c2ccc3c(N)n[nH]c3c2)c1 | 22% |
| CC(C)NCC(Cc1ccccc1)NC(=O)c1cc(Br)c(-c2ccnc3[nH]ccc23)s1.Cl.Cl (centres unmarked) | 40% |

----------
System: ACVRL1
Settings: concentration: 1 μM, replicates: in singlicate; n = 1

| molecule | %Inh |
| --- | --- |
| Cc1cccc(Nc2nc(N[C@H]3CCCC[C@H]3N)ncc2C(N)=O)c1.Cl | 0% |
| CC(C)(C)c1ccc(C(=O)Nc2cn3cc(-n4ccnc4)ccc3n2)cc1 | 0% |
| CC(=O)Nc1cn2nc(Oc3cccc(NC(=O)c4cccc(C(F)(F)F)c4)c3)ccc2n1 | 0% |
| O=C(Nc1n[nH]c2nc(-c3ccccc3)ccc12)C1CC1 | 0% |
| COc1cccc2c(-c3ccncc3)c(-c3ccc(F)cc3)nn12 | 3% |
| Cc1cc(-c2c(-c3ccc(F)cc3)ncn2CCCN2CCOCC2)nc(N)n1 | 0% |
| Cc1ccc(Nc2ccnc(Nc3ccc(C)c(F)c3)n2)cc1O.Cl | 62% |
| Cl.Cl.NC(CNC(=O)c1cc(Br)c(-c2ccnc3[nH]ccc23)s1)c1ccccc1 (stereo not drawn) | 0% |
| O=C(O)C(F)(F)F.O=c1[nH]ccc2nc(N[C@@H]3CCNC3)nc(Nc3ccc4c(c3)S(=O)(=O)CC4)c12 | 0% |

----------
Tested on: ASK1
Construct: gene MAP3K5
Conditions: concentration: 1 μM, replicates: in singlicate; n = 1
Listed next: entries and their corresponding %Inh.

| compound | %Inh (%) |
| --- | --- |
| Cc1ccc(O)cc1Nc1ccnc2cc(-c3ccc(CN4CCCCC4)o3)ccc12 | 37 |
| O=C(O)C(F)(F)F.O=c1[nH]ccc2nc(N[C@@H]3CCNC3)nc(Nc3ccc4c(c3)S(=O)(=O)CC4)c12 | 0 |
| N#Cc1cnc2cc(-c3cnc(CNCCN4CCOCC4)s3)ccc2c1Nc1ccc(Oc2ccccc2)cc1 | 5 |
| COc1ccc(NC(=O)c2ccoc2)cc1-c1ccc(C(=O)NCC2CC2)cc1 | 30 |
| CC(C)NCC(Cc1ccccc1)NC(=O)c1cc(Br)c(-c2ccnc3[nH]ccc23)s1.Cl.Cl (stereo not shown) | 0 |
| COc1ccc(C)c(Nc2ccnc(Nc3ccc(-c4cnc[nH]4)cc3)n2)c1.Cl | 0 |
| O=C(Nc1n[nH]c2nc(-c3cccc(O)c3)ccc12)C1CC1 | 0 |

----------
Test system: GRK3
Construct: gene ADRBK2
Conditions: concentration: 1 μM, replicates: in singlicate; n = 1

| smiles_text | %Inh |
| --- | --- |
| CCn1cnc2c(NCc3ccccc3)ncnc21 | 0% |
| COc1cc(Nc2nccc(N3CCC(NS(=O)(=O)c4ccc(NC(C)=O)cc4)CC3)n2)cc(OC)c1OC | 44% |
| COc1cccc(C2=C(Nc3cccc(O)c3)C(=O)NC2=O)c1 | 31% |
| Nc1ncc(-c2ccc3nccc(-c4ccncc4)c3c2)cc1S(=O)(=O)N1CCCCC1 | 0% |
| Nc1ncc(-c2cn[nH]c2)c2scc(-c3ccc4c(c3)CCN4C(=O)Cc3ccccc3)c12 | 0% |

----------
System: CSNK1D
Conditions: concentration: 1 μM, replicates: in singlicate; n = 1

| smiles_text | scale_unit | %Inh |
| --- | --- | --- |
| Cc1ccc(Nc2ccnc(Nc3ccc(C)c(F)c3)n2)cc1O.Cl | % | 0 |
| Cc1ccc(O)cc1Nc1ccnc2cc(-c3ccc(CN4CCCCC4)o3)ccc12 | % | 27 |
| O=C(Nc1n[nH]c2nc(-c3cccc(O)c3)ccc12)C1CC1 | % | 11 |
| O=C(Nc1c(F)cccc1F)c1cc(C(=O)c2ccccc2F)c[nH]1 | % | 0 |
| COc1ccc(C2=C(Nc3cccc(O)c3)C(=O)NC2=O)cc1 | % | 94 |

----------
Test system: MST4
Details: concentration: 1 μM, replicates: in singlicate; n = 1

| compound | %Inh |
| --- | --- |
| CN(c1ccc(NC(=O)Nc2cccc(Cl)c2)cc1)c1ccnc(N)n1.Cl [GW830707] | 16% |
| COC(=O)Nc1nc2ccc(Oc3ccc(CC(=O)Nc4cc(C(F)(F)F)ccc4F)cc3)cc2[nH]1 [GW680903] | 0% |
| COC(=O)Nc1nc2ccc(Oc3ccc(NC(=O)Nc4cc(C(F)(F)F)ccc4F)cc3)cc2[nH]1.Cl [GW654607] | 8% |
| NCCC(NC(=O)c1cc(Br)c(-c2ccnc3[nH]ccc23)s1)c1ccccc1.O=C(O)C(F)(F)F.O=C(O)C(F)(F)F (centres unmarked) [GSK1307810] | 23% |
| CCOc1nccc(-c2c(-c3ccc(F)cc3)ncn2C2CCNCC2)n1 [SB-249175] | 11% |
| COc1cccc(-c2nc(-c3ccccc3)[nH]c2-c2ccncc2)c1 [SB-610250] | 0% |
| COc1cccc(C2=C(Nc3cccc(O)c3)C(=O)NC2=O)c1 [SB-390771] | 7% |
| CCn1cnc2c(NCc3ccccc3)ncnc21 [SKF-96418] | 0% |

----------
System: DMPK2
Construct: gene CDC42BPG
Settings: concentration: 1 μM, replicates: in singlicate; n = 1
%Inh by entry:

| compound | experimental_system | %Inh, % |
| --- | --- | --- |
| Cl.Cl.NCC(NC(=O)c1cc(-c2cccnc2)c(-c2ccnc3[nH]ccc23)s1)c1ccccc1 (stereo not drawn) [GSK1323434] | DMPK2 | 51 |
| COc1cccc(C2=C(Nc3cccc(O)c3)C(=O)NC2=O)c1 [SB-390771] | DMPK2 | 0 |
| COc1cccc(-c2nc(-c3ccccc3)[nH]c2-c2ccncc2)c1 [SB-610250] | DMPK2 | 68 |
| CSc1ccc(NC2=C(c3ccc(Cl)cc3)C(=O)NC2=O)cc1 [SB-317658] | DMPK2 | 10 |
| c1ccc(Oc2ccc(Nc3ccnc4cc(-c5ccc(CN6CCCCC6)o5)ccc34)cc2)nc1 [GW567143] | DMPK2 | 0 |
| Nc1ncnc2scc(-c3ccc(NC(=O)Cc4cc(F)ccc4F)cc3)c12.O=C(O)C(F)(F)F [SB-731254-M] | DMPK2 | 23 |
| CNc1nccc(-c2ccc3c(N)n[nH]c3c2)n1 [GSK2206003] | DMPK2 | 0 |
| CCOc1nccc(-c2c(-c3ccc(F)cc3)ncn2C2CCNCC2)n1 [SB-249175] | DMPK2 | 75 |
| COc1ccc(NC(=O)c2ccoc2)cc1-c1ccc(C(=O)NCC2CC2)cc1 [GW810437] | DMPK2 | 0 |

----------
Tested on: ERBB4
Settings: concentration: 1 μM, replicates: in singlicate; n = 1
Overview of recorded %Inh for various compounds
quantity_kind: %Inh (%)

| smiles_text | experimental_system | recorded_value |
| --- | --- | --- |
| Cc1ccc(NC(=O)c2ccnc(N3CCCCC3)c2)cc1-c1ccc(C(=O)NCC2CC2)cc1 | ERBB4 | 19 |
| COc1cc(Nc2nccc(N3CCC(NS(=O)(=O)c4ccc(NC(C)=O)cc4)CC3)n2)cc(OC)c1OC | ERBB4 | 20 |
| CCNC(=O)/C=C/c1n[nH]c2cc(Sc3ccccc3C(=O)NC)ccc12 | ERBB4 | 1 |
| O=C(Nc1c(F)cccc1F)c1cc(C(=O)c2ccccc2F)c[nH]1 | ERBB4 | 0 |

----------
Test system: CSNK1G2
Conditions: concentration: 1 μM, replicates: in singlicate; n = 1
Items are presented alongside their recorded %Inh.

| compound | %Inh [%] |
| --- | --- |
| CCNc1nccc(-c2c(-c3ccc(F)cc3)ncn2C2CCN(C)CC2)n1 | 1 |
| CC(=O)Nc1cn2nc(Oc3cccc(NC(=O)c4cccc(C(F)(F)F)c4)c3)ccc2n1 | 0 |
| COC(=O)Nc1nc2cc(Oc3ccc(NC(=O)Nc4cccc(SC)c4)cc3)ccc2[nH]1.Cl [GW697999] | 0 |
| O=C(O)C(F)(F)F.O=c1[nH]ccc2nc(N[C@@H]3CCNC3)nc(Nc3ccc4c(c3)S(=O)(=O)CC4)c12 [GSK2181306] | 87 |
| COc1ccc(NC(=O)c2ccoc2)cc1-c1ccc(C(=O)NCC2CC2)cc1 [GW810437] | 0 |
| CCn1c(-c2nonc2N)nc2c(-c3ccccc3)ncc(OCCCN)c21.O=C(O)C(F)(F)F.O=C(O)C(F)(F)F [GSK260205] | 0 |
| CNc1nccc(-c2ccc3c(N)n[nH]c3c2)n1 [GSK2206003] | 0 |
| COc1cccc(-c2nc(-c3ccccc3)[nH]c2-c2ccncc2)c1 [SB-610250] | 0 |
| O=C(Nc1n[nH]c2nc(-c3ccccc3)ccc12)C1CC1 [SB-708999] | 0 |
| Cn1cc(-c2cnc(N)c3c(-c4ccc5c(c4)CCN5C(=O)Cc4ccccc4)csc23)cn1 [GSK2593074] | 7 |
| CCn1cnc2c(NCc3ccccc3)ncnc21 [SKF-96418] | 0 |
| CN(C)c1ncnc2nc[nH]c12 [SKF-31736] | 0 |
| Cn1cc(-c2ccc3c(c2)CCN3C(=O)Cc2cc(F)cc(F)c2F)c2c(N)ncnc21 [GSK2634140] | 8 |
| Cc1ccc(Nc2ccnc(Nc3ccc(C)c(F)c3)n2)cc1O.Cl [GW582868] | 0 |
| COc1cc(Nc2nccc(N3CCC(NC(=O)Nc4ccc5c(c4)OCO5)C3)n2)cc(OC)c1OC (stereo not shown) [GSK1379766] | 0 |
| CC(C)NCC(Cc1ccccc1)NC(=O)c1cc(Br)c(-c2ccnc3[nH]ccc23)s1.Cl.Cl (stereo not shown) [GSK1383281] | 14 |
| O=C(Nc1n[nH]c2cc(-c3cccs3)ccc12)C1CC1 [SB-731284] | 0 |
| Cc1cccc(Nc2nc(N[C@H]3CCCC[C@H]3N)ncc2C(N)=O)c1.Cl [GSK986310] | 0 |
| COc1cc(Nc2ccnc3cc(-c4ccncc4)ccc23)cc(OC)c1OC.Cl [GW494610] | 0 |
| Cc1ccccc1CC(=O)N1CCc2cc(-c3cn(C)c4ncnc(N)c34)ccc21 [GSK2603346] | 5 |
| Nc1cccc(-c2ccc3c(N)n[nH]c3c2)c1 [GSK2193613] | 0 |
| O=C(Nc1n[nH]c2nc(-c3ccccc3O)ccc12)C1CC1 [SB-711880] | 0 |
| Cl.Cl.NCC(NC(=O)c1cc(-c2cccnc2)c(-c2ccnc3[nH]ccc23)s1)c1ccccc1 (stereo not shown) [GSK1323434] | 63 |
| COc1cccc(CC(=O)N2CCc3cc(-c4cn(C)c5ncnc(N)c45)ccc32)c1 [GSK2608899] | 5 |
| COC(=O)Nc1nc2ccc(Oc3ccc(NC(=O)Nc4cc(C(F)(F)F)ccc4F)cc3)cc2[nH]1.Cl [GW654607] | 0 |
